Record form. Attribute: pKd. Fill in for each entry.
# subject.of.test: ARHGEF12, Q9NZN5-2
# Sequence (Q9NZN5 other isoform, or with tags, fused parts or gaps): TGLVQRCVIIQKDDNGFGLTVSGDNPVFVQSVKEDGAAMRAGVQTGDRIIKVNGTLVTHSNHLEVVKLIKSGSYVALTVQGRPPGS
# assay.name: holdup assay
# Set-up: key: below the threshold = too weak to quantify, mostly under pKd 3.1 to 4
# measurement.conditions: plain residues with an end cap or a label only (N-terminal biotin on a linker: ttds)
Give the figure only, with no unit attached.

Incoming: Reported pKd, binder SKPTRRETEV [HPV35-E6, P27228] : ____
Outgoing: 4.06

Incoming: Here is the next binder: SSLQSLETSV [ATP2B4, P23634]
Outgoing: 4.4

Incoming: Here is the next binder: NDPAWDETNL [ARHGEF7, Q14155;Q14155-1]
Outgoing: 4.03

Incoming: Here is the next binder: RHTTSTETAV [HPV30-E6, P36809]
Outgoing: 4.2

Incoming: Here is the next binder: PRVKPQRSKV [PPP1R13L, Q8WUF5]
Outgoing: 3.54

Incoming: Here is the next binder: RLQRRRETQV [HPV18-E6, P06463]
Outgoing: 3.91

Incoming: Here is the next binder: VDFPPKESSL [ACVR2A, P27037]
Outgoing: 4.2

Incoming: Here is the next binder: RPLPRKVSQL [DOCK4, Q8N1I0]
Outgoing: 4.62

Origin of values: paper PMC9482650
